- PROTOCOL NOTES: in vitro
- EXPERIMENTAL SETUP: African green monkey, TC50, Table 2, Example 7; 50% cell death in absence of virus, day 3
VALUE KIND: CC50

The compound listed as O=C(C(=O)N1CCCC[C@H]1C(=O)NCCCc1ccccc1)c1ccccc1 shows CC50 equal to > 30 µM

CC50 in this record for CCC(CC)COC(=O)[C@H](C)N[P@](=O)(OC[C@H]1O[C@@](C#N)(c2ccc3c(N)ncnn23)[C@H](O)[C@@H]1O)Oc1ccccc1 : > 100 µM

###

- PROTOCOL NOTES: in vitro
- EXPERIMENTAL SETUP: African green monkey, TC50, Table 1, Example 6; 50% cell death in absence of virus, day 4
VALUE KIND: CC50

The recorded CC50 for entry CCC(CC)COC(=O)[C@H](C)N[P@](=O)(OC[C@H]1O[C@@](C#N)(c2ccc3c(N)ncnn23)[C@H](O)[C@@H]1O)Oc1ccccc1 equals > 100 µM

Values from patent US20240269125A1
